Just for reference, patent US9598414B2 is where these values come from.

# systemTested: α-Adrenergic α2A (Homo sapiens, UniProt P08913)
# Sequence (P08913 whole entry): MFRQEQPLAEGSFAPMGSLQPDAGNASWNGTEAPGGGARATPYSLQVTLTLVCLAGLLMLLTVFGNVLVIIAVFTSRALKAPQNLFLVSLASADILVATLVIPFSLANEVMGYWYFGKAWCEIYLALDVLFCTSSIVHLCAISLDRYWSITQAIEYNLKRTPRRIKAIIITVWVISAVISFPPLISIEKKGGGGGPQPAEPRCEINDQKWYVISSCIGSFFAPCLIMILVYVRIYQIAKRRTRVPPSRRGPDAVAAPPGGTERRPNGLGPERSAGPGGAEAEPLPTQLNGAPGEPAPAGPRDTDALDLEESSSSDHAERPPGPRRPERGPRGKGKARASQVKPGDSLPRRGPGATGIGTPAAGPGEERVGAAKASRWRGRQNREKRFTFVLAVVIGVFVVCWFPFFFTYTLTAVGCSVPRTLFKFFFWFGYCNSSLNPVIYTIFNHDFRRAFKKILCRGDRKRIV
reportedEndpoint: Ki
Give the value; after it, write the unit.

For orientation, consider the following solved cases.
Q: Any idea what its Ki is? The molecule is CN1CCc2c(c3cccc4c3n2Cc2ccccc2C4)C1 [Compound 13a]
Ans: 1800 nM

Q: Give the measured Ki of CN1CCc2c(c3cccc4c3n2Cc2ccccc2O4)C1 [Compound 13b] .
Ans: 1460 nM

// next entry
Q: Could you tell me which Ki is on file for CN1CCc2c(c3cccc4c3n2-c2ccccc2CC4)C1 [Compound 6a, reference compound] ?
Ans: 228 nM

----------
# systemTested: Dopamine D5 (Homo sapiens, UniProt P21918)
# Sequence (P21918 whole entry): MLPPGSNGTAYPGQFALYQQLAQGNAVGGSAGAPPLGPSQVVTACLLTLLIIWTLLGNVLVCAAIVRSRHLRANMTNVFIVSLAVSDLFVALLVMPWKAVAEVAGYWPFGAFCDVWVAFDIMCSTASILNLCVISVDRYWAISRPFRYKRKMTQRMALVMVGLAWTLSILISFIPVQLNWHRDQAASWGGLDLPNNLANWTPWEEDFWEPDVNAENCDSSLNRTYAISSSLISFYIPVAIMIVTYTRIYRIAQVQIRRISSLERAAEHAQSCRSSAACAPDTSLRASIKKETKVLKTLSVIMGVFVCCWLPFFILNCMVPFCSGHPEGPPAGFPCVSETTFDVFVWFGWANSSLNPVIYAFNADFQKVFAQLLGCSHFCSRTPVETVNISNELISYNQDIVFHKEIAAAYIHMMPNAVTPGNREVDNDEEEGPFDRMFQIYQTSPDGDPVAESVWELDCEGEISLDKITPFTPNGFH
reportedEndpoint: pKi
Hey, just a heads up that pKi is the negative log base 10 of the concentration in molar.

Q: Param readout = pKi; param system = Dopamine D5 (Homo sapiens, UniProt P21918); param query = CN1CCc2c(c3cccc4c3n2-c2ccccc2CC4)C1 [Compound 6a, reference compound] ; response: value
Ans: 6.24

----------
For reference, Ki measured on Histamine H1 (Homo sapiens, UniProt P35367):
Number only, in nM; omit the unit.

Answered examples (2):
Q: What measured Ki is associated with CN1CCc2c(c3cccc4c3n2Cc2ccccc2C4)C1 [Compound 13a] on Histamine H1 (Homo sapiens, UniProt P35367)?
Ans: 48

Q: I'm curious: which Ki was measured for CN1CCc2c(c3cccc4c3n2-c2ccccc2CC4)C1 [Compound 6a, reference compound] tested on Histamine H1 (Homo sapiens, UniProt P35367)?
Ans: 50

New cases:
Q: Form entry - test system: Histamine H1 (Homo sapiens, UniProt P35367); read-out: Ki; compound: CN1CCc2c(c3cccc4c3n2Cc2ccccc2O4)C1 [Compound 13b]
Sequence (P35367 whole entry): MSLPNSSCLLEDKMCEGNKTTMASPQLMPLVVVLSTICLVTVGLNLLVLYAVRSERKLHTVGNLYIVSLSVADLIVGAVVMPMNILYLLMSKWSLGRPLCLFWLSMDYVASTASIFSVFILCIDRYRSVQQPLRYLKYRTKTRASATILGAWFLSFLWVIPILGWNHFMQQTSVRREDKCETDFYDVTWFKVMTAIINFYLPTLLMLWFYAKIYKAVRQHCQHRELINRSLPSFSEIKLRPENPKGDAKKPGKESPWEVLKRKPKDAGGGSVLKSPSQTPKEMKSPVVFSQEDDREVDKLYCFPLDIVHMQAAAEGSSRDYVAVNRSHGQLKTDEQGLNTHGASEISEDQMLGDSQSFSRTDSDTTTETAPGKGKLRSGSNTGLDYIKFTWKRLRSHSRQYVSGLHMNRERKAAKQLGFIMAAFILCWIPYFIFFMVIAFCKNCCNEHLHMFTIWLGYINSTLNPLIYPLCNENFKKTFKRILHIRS
Ans: 733

----------
# systemTested: Serotonin 5-HT1E (Homo sapiens, UniProt P28566)
# Sequence (P28566 whole entry): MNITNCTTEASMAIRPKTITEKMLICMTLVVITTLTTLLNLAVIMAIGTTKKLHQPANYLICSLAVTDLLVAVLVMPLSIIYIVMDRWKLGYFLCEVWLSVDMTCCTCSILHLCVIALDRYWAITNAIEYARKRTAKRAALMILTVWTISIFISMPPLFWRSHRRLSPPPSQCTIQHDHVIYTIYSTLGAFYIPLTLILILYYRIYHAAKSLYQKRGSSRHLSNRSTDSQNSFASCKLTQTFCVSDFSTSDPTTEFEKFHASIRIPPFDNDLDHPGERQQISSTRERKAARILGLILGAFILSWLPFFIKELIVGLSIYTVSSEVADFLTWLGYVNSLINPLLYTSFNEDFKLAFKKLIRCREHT
reportedEndpoint: pKi
The meaning of pKi here: minus log10 of the concentration in molar units.

Q: Query: pKi; subject: CN1CCc2c(c3cccc4c3n2-c2ccccc2CC4)C1 [Compound 6a, reference compound]
Ans: 5.39

----------
# systemTested: Muscarinic M2 (Homo sapiens, UniProt P08172)
# Sequence (P08172 whole entry): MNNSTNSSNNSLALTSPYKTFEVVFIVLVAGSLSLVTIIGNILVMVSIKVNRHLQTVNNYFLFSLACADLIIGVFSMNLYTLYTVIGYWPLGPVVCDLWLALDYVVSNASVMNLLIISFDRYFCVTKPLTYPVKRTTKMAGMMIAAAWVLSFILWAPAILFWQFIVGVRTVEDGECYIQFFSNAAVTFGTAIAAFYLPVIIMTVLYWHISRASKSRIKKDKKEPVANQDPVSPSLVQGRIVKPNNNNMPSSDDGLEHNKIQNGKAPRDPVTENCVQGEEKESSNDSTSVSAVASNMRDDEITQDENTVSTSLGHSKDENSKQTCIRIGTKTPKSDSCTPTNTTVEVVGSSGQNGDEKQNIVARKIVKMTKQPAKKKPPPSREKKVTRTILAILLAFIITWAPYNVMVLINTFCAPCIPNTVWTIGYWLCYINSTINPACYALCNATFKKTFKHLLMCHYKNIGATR
reportedEndpoint: Ki

Q: Lab note: need Ki with Muscarinic M2 (Homo sapiens, UniProt P08172) for entry CN1CCc2c(c3cccc4c3n2Cc2ccccc2O4)C1 [Compound 13b] , please look it up.
Ans: > 10 µM

----------
# systemTested: Sigma σ1 (Homo sapiens, UniProt Q99720)
# Sequence (Q99720 whole entry): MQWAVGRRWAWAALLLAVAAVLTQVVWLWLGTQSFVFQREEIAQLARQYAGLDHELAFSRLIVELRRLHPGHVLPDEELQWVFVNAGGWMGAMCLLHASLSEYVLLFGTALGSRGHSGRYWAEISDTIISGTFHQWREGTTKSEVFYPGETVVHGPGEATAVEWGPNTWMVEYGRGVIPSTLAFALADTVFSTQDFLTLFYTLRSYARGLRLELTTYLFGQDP
reportedEndpoint: pKi
The meaning of pKi here: minus log10 of the concentration in molar units.

Q: What does the record list as pKi for CN1CCc2c(c3cccc4c3n2Cc2ccccc2O4)C1 [Compound 13b] ?
Ans: 6.66

----------
# systemTested: UniProtKB Q01959
# Sequence (Q01959 whole entry): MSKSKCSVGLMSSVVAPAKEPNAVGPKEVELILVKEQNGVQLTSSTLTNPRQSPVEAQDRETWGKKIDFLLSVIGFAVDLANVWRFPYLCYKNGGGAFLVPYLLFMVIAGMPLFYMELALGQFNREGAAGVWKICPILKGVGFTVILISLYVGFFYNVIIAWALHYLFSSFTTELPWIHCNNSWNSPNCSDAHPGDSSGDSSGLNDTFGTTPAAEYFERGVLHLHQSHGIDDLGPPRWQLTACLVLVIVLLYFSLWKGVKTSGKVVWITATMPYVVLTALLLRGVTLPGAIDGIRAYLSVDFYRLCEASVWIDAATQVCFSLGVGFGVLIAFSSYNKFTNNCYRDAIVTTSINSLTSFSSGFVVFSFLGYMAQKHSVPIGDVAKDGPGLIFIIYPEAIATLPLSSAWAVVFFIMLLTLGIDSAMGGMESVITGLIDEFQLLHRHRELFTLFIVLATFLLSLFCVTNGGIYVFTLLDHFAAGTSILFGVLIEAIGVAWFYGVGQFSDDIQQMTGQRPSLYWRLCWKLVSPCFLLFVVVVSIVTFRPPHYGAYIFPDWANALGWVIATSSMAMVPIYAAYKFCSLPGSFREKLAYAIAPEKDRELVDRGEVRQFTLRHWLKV
pKi: −log10 of the molar value.
reportedEndpoint: pKi

Q: Need pKi of CN1CCc2c(c3cccc4c3n2Cc2ccccc2O4)C1 [Compound 13b] , thanks.
Ans: < 5.00
